Reference source: patent US7109380B2

Please go through the items and note down their Mean percent fungal growth inhibition of Phomopsis viticola.
tested on: Phomopsis viticola; test: 96-well microtiter fungal growth assay; format: cell-based; conditions: 3.0 μm, 120 hrs;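 note: percent relative to untreated positive growth controls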
Kindly provide the numeric value in % only, without the unit symbol.

I have this compound here, "COC(/C=C/c1ccccc1)=C1\C(=O)C=C(C)C1=O" , and I need its recorded Mean percent fungal growth inhibition of Phomopsis viticola. −71.1

I have this compound here, "CO/C=C(/C(=O)OC)c1ccccc1Oc1cc(Oc2ccccc2C#N)ncn1" , and I need its recorded Mean percent fungal growth inhibition of Phomopsis viticola. −124.5

I have this compound here, "Cc1cc(C2CC2)nc(Nc2ccccc2)n1" , and I need its recorded Mean percent fungal growth inhibition of Phomopsis viticola. −184.6

I have this compound here, O=C1C2CC=CCC2C(=O)N1SC(Cl)(Cl)Cl (stereo not shown) , and I need its recorded Mean percent fungal growth inhibition of Phomopsis viticola. −99.8
